# credit: paper PMC12282580

test system: MDA-MB-231 cells (breast cancer); assay: Cytotoxicity assay; assay type: cell-based, human; conditions: read-out: Cytotoxicity (IC50) MDA-MB-231; MDA-MB-231 breast cancer; 48h; MTT
I'd be grateful if you could share measured pIC50 for these entries.
Give bare numbers, as −log10 of the molar value.

                                   compound  readout_name  assay_result
0  O=C(/C=C/c1ccc(Cn2cc(Cn3cnc4ccc(Br)cc4c3=O)nn2)cc1)NO [Compound 11g]         pIC50          5.04

Would you kindly look at the next entry?
Determine reported pIC50 for O=C(/C=C/c1ccc(Cn2cc(Cn3cnc4cc(Br)ccc4c3=O)nn2)cc1)NO [Compound 11h] ; test system: MDA-MB-231 cells (breast cancer).
5.26
